// reported DC50 per item
Biological target: BTK (Homo sapiens)
Construct: endogenous in cells; host or cells: TMD8 cells
Sequence (Q06187 whole entry): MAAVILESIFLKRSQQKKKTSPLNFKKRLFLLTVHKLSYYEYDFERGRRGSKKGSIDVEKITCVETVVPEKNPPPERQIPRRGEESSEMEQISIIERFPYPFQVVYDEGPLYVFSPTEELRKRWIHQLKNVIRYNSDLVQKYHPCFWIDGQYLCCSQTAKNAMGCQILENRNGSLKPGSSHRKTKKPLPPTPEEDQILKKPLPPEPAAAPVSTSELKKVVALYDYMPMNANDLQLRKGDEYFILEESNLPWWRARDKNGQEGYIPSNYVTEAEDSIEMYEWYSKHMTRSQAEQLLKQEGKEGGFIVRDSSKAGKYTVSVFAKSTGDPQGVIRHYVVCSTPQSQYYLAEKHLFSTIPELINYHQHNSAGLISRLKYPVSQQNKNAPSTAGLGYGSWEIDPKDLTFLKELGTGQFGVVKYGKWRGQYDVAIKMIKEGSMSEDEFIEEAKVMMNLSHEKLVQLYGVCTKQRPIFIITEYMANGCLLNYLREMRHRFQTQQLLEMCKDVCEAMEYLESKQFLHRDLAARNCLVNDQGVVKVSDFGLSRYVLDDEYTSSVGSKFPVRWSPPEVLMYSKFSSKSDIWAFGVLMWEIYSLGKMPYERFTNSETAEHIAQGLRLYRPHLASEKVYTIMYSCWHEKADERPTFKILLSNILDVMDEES
Test: Cellular BTK HTRF assay (BTK degradation) in TMD8 cells
Format: cell-based
Details: four hours incubation, Total-BTK HTRF relative to DMSO-treated cells

Check out these entries, answers already filled in.
INSERT INTO assay_data (compound, result) VALUES
  ('NC(=O)c1ncc(N2CCC[C@H](N3CCCC3=O)C2)nc1Nc1ccc(C2CN(C[C@@H]3CCN(c4ccc5c(c4)C(=O)N(C4CCC(=O)NC4=O)C5=O)C3)C2)cc1 (stereo partly drawn) [Compound 140]', '< 5 nM'),
  ('CN1CCN([C@@H]2CCCN(c3cnc(C(N)=O)c(Nc4ccc(N5CCC6(CC5)CCN(c5ccc7c(c5)C(=O)N(C5CCC(=O)NC5=O)C7=O)CC6)cc4)n3)C2)C1=O (stereo partly drawn) [Compound 55]', '< 5 nM');

Ask | Please give the documented DC50 of CN1CCN([C@@H]2CCCN(c3cnc(C(N)=O)c(Nc4ccc(N5CCN(C[C@H]6CCN(c7ccc8c(c7)C(=O)N(C7CCC(=O)NC7=O)C8=O)C6)CC5)nc4)n3)C2)C1=O (stereo partly drawn) [Compound 113]
Reply | < 5 nM

Origin of measurements: patent US11479556B1
